src = patent US11760722B2

# Tested on: SARS-CoV-2 replicon
# assay.comment: microbe, parasite or virus in culture
# Assay type: cell-based
# experimental.setup: read-out: Replicon EC50
parameter.measured: log10 EC50 (log10 of the value in nM)
Response schema: value (number) is log10 of EC50 in units of nM.

Consider the following illustrative entries.
>>> measured("CC(C)(C)[C@H](NC(=O)C(c1ccccc1)c1ccccc1)C(=O)N1C[C@H]2[C@@H]([C@H]1C(=O)N[C@H](C#N)C[C@@H]1CCNC1=O)C2(C)C")
3.15
>>> measured("CC(C)(C)[C@H](NC(=O)c1cccc(S(F)(F)(F)(F)F)c1)C(=O)N1C[C@H]2[C@@H]([C@H]1C(=O)N[C@H](C#N)C[C@@H]1CCNC1=O)C2(C)C")
3.60
>>> measured("CC(C)(C)[C@H](NS(=O)(=O)c1ccc(OC(F)(F)F)cc1)C(=O)N1C[C@H]2[C@@H]([C@H]1C(=O)N[C@H](C#N)C[C@@H]1CCNC1=O)C2(C)C")
2.20
>>> measured("CC(C)(C)NC(=O)N[C@H](C(=O)N1C[C@H]2[C@@H]([C@H]1C(=O)N[C@H](C#N)C[C@@H]1CCNC1=O)C2(C)C)C(C)(C)C")
2.90

Consider the additional compound presented here.
Q: What does the data say about its log10 EC50? Entry: "CC(C)(C)OC(=O)N[C@H](C(=O)N1C[C@H]2[C@@H]([C@H]1C(=O)N[C@H](C#N)C[C@@H]1CCNC1=O)C2(C)C)C(C)(C)C"
Result: 2.08
